Kindly state IC50 for each of the entries shown.
# Test system: PANC1 (pancreatic carcinoma) cells, p53R273H
# Format: cell-based
# particulars: 48 h
Where a SMILES comes first, the peptide text is derived from it. Bridges are numbered along the chain shown (N, C = ends). [ ]: non-standard residue; d: D form. The star is where a group is joined. Stearoyl = CCCCCCCCCCCCCCCCCC(=O)*; Myristoyl = CCCCCCCCCCCCCC(=O)*; dTic = O=C(O)[C@H]1Cc2ccccc2CN1; Dab = NCC[C@H](N)C(=O)O
Provide the reading as a plain figure in nM.

IC50 of CCCCCCCCCCCCCC(=O)N[C@@H](CCCNC(=N)N)C(=O)N[C@@H](CCCNC(=N)N)C(=O)N[C@@H](Cc1c[nH]cn1)C(=O)N[C@@H](CO)C(=O)N[C@@H](C(=O)N1CCC[C@H]1C(=O)N[C@@H](CCN)C(=O)N1CCC[C@H]1C(=O)N[C@@H](CC(=O)O)C(=O)O)C(C)C [pCAP-553, myr-RRHSvP(L-Dab)PD] (Myristoyl-RRHS[dV]P[Dab]PD-OH; C-terminus assumed) on PANC1 (pancreatic carcinoma) cells, p53R273H?
2100

Param item: CCCCCCCCCCCCCCCCCC(=O)N[C@@H](CCCNC(=N)N)C(=O)N[C@@H](CCCNC(=N)N)C(=O)N[C@@H](Cc1c[nH]cn1)C(=O)N[C@@H](CO)C(=O)N[C@H]1CCCCNC(=O)[C@H](CC(=O)O)NC(=O)[C@@H]2CCCN2C(=O)[C@H](CCN)NC(=O)[C@@H]2CCCN2C1=O [pCAP-713, str-RRHSKP(Dab)PD-Cyc] (Stearoyl-RRHSKP[Dab]PD; lactam 5-C)
1050

# repeat for CCCCCCCCCCCCCCCCCC(=O)N[C@@H](CCCNC(=N)N)C(=O)N[C@@H](CCCNC(=N)N)C(=O)N[C@@H](Cc1c[nH]cn1)C(=O)N[C@@H](CO)C(=O)N[C@H](CCCCN)C(=O)N1Cc2ccccc2C[C@@H]1C(=O)N[C@@H](CCN)C(=O)N1CCC[C@H]1C(=O)N[C@@H](CC(=O)O)C(N)=O [pCAP-719, str-RRHSk(tic)(Dab)PD-NH2] (Stearoyl-RRHS[dK][dTic][Dab]PD-NH2)
2180

====

# System: MIA PaCa-2 (pancreatic carcinoma) cells, p53R248W
# Assay type: cell-based
# particulars: 48 h
# Description: Cells were cultured in 96 wells plates with 2500-4000 cells/well. Serial dilutions of different peptides were added and the plates incubated for additional 48 h at 37° C. Then medium was removed and cell viability was determined by staining the cells with crystal violet (0.05%) in methanol/PBS (1:5, v/v), for 10 min, followed by 3 washes with PBS. 10% acetic acid was added to each well for 10 min. OD was determined at 595 nm. […]
Where a SMILES comes first, the peptide text is derived from it. Bridges are numbered along the chain shown (N, C = ends). [ ]: non-standard residue; d: D form. The star is where a group is joined. Stearoyl = CCCCCCCCCCCCCCCCCC(=O)*; Dab = NCC[C@H](N)C(=O)O
value type: pIC50
# reply with the number alone; pIC50 is -log10 of concentration in mol/L

Suppose we examine the molecule CCCCCCCCCCCCCCCCCC(=O)N[C@@H](CCCNC(=N)N)C(=O)N[C@@H](CCCNC(=N)N)C(=O)N[C@@H](Cc1c[nH]cn1)C(=O)N[C@@H](CO)C(=O)N[C@@H]1CCCCNC(=O)[C@H](CC(=O)O)NC(=O)[C@@H]2CCCN2C(=O)[C@H](CCN)NC(=O)[C@H]2CCCN2C1=O [pCAP-724, str-RRHSkp(Dab)PD-Cyc] (Stearoyl-RRHS[dK][dP][Dab]PD; lactam 5-C) ; what pIC50 value has been reported?
6.60

Please do the same for `CCCCCCCCCCCCCC(=O)N[C@@H](CCCNC(=N)N)C(=O)N[C@@H](CCCNC(=N)N)C(=O)N[C@@H](Cc1c[nH]cn1)C(=O)N[C@@H](CO)C(=O)N[C@H](C(=O)N1CCC[C@H]1C(=O)N[C@@H](Cc1c[nH]cn1)C(=O)N1CCC[C@H]1C(=O)N[C@@H](CC(=O)O)C(=O)O)[C@@H](C)O` as well.
6.00
